System: A-431
Test: Growth inhibition of human A431 cells incubated for 96 hrs by cell-titer Glo reagent based assay
Format: functional
Details: A-431, 96 h
endpoint label: GI50 (µM)

| structure as smiles | test result |
| --- | --- |
| Cc1cc(Nc2cc(N3CCN(C)CC3)nc(Oc3cccc([N+](=O)[O-])c3)n2)n[nH]1 | 3.5 |
| CCC(=O)Nc1cccc(Oc2nc(Nc3cc(C)[nH]n3)cc(N3CCN(C)CC3)n2)c1 | 8.4 |
| C=CC(=O)Nc1ccc2c(Nc3cc[nH]n3)nc(-c3ccccc3)nc2c1 | 0.7 |

a. Cc1cc(Nc2cc(N3CCN(C)CC3)nc(Oc3cccc(N)c3)n2)n[nH]1
b. C=CC(=O)Nc1cccc(Oc2nc(Nc3cc(C)[nH]n3)cc(N3CCN(C)CC3)n2)c1
Looking at a and b , which one comes out lower in GI50 terms? Answer by quoting the chosen item's label.
b
(b: 5.7 µM, a: 20 µM)

====

Target: Proto-oncogene tyrosine-protein kinase Src (Homo sapiens, UniProt P12931)
endpoint label: pIC50
Friendly reminder that pIC50 comes from taking -log10 of the concentration in mol/L.

Which pIC50 is listed for C=CC(=O)Nc1ccc2c(Nc3cc[nH]n3)nc(-c3ccccc3)nc2c1 ?
6.68

====

Target: Proto-oncogene tyrosine-protein kinase Src (Homo sapiens, UniProt P12931, T341M)
Experiment: Inhibition of cSrc T338M mutant (unknown origin) pre-incubated for 30 mins before substrate and ATP addition by HTRF assay
pIC50: −log10 of the molar value.
endpoint label: pIC50

Reference set, count: 2
| structure as smiles | pIC50 |
| --- | --- |
| C=CC(=O)Nc1cccc(Oc2nc(Nc3cc(C)[nH]n3)cc(N3CCN(C)CC3)n2)c1 | 6.77 |
| CCC(=O)Nc1ccc2c(Nc3cc[nH]n3)nc(-c3ccccc3)nc2c1 | 7.22 |

P. CCC(=O)Nc1cccc(Oc2nc(Nc3cc(C)[nH]n3)cc(N3CCN(C)CC3)n2)c1
Q. C=CC(=O)Nc1ccc2c(Nc3cc[nH]n3)nc(-c3ccccc3)nc2c1
Compare reported pIC50 values for P and Q . Which is lower? # answer = label of selected item
P
(P: 6.60, Q: 7.19)

====

So I've got IC50 readings for Epidermal growth factor receptor (Homo sapiens, UniProt P00533, L858R), take a look.
endpoint label: IC50 (nM)

Sample records with IC50:
| structure as smiles | readout unit | IC50 |
| --- | --- | --- |
| Cc1cc(Nc2cc(N3CCN(C)CC3)nc(Oc3ccccc3[N+](=O)[O-])n2)n[nH]1 | nM | 1900 |
| C=CC(=O)Nc1cccc(Oc2nc(Nc3cc(C)[nH]n3)cc(N3CCN(C)CC3)n2)c1 | nM | 30 |

1. CCC(=O)Nc1cccc(-c2nc(Nc3cc[nH]n3)c3ccccc3n2)c1
2. C=CC(=O)Nc1cccc(-c2nc(Nc3n[nH]c4ccccc34)cc(N3CCN(C)CC3)n2)c1
Hi team, can someone confirm which has the larger IC50: 1 or 2 ? Thanks. API: response body contains the label of the selected item.
2
(2: 5000 nM, 1: 1900 nM)

A. C=CC(=O)Nc1ccccc1-c1nc(Nc2cc[nH]n2)c2ccccc2n1
B. C=CC(=O)Nc1cccc(Oc2nc(Nc3n[nH]c4ccccc34)cc(N3CCN(C)CC3)n2)c1
// which entry reports the smaller IC50, A or B ? Your choice should be expressed through its label.
B
(B: 500 nM, A: 2700 nM)

I. C=CC(=O)Nc1ccc2c(Nc3cc[nH]n3)nc(-c3ccccc3)nc2c1
II. C=CC(=O)Nc1cccc(Oc2nc(Nc3n[nH]c4ccc(Br)cc34)cc(N3CCN(C)CC3)n2)c1
Field: entry with larger IC50 (options I / II ). Response format: the label of the selected entry.
I
(I: 1900 nM, II: 400 nM)
